system: SF-539; test: NCI tumour cell line growth inhibition, 48 h
Activity calls are given as the source filed them. Rule as the data show it: active = GI50 up to about 1.1 µM and inactive = higher.
// allowed return values: 1 (active), -1 (inactive)

Solved entries (count: 3):
>>> df
                                   compound  assayed_target  class_assignment
0  CC1C(c2ccccc2)OP(=O)(OC(C#N)c2ccccc2)N1C (configuration not stated)          SF-539                -1
1  CC1(C)CNC(=O)C2(/C=N/C(C)(C)CNC(=O)C3(/C=N/1)CCCO3)CCCO2 (configuration not stated)          SF-539                -1
2  COc1ccc(/C=N/n2c(-c3ccccc3)n[nH]c2=O)cc1          SF-539                -1

Just curious, what result did "COc1cc(OC)c2[nH]c3c(O)c(-c4c(C)cc5c([nH]c6c(OC)cc(OC)cc65)c4O)c(C)cc3c2c1" get here? -1

Also, c1ccc(CC(Nc2cccnc2)c2ccccc2)cc1 (configuration not stated) please. -1

Also, "COc1cc2c(cc1O)[C@H](Cc1ccc(Oc3cc(C[C@H]4c5cc(OC)c(OC)cc5CCN4C)ccc3OC)cc1)NCC2" please. -1

Also, OC1(c2ccccc2)CSc2ncnn21 (configuration not stated) please. -1

Also, CC(C)=CCc1c(O)c(CC=C(C)C)c2oc3c(c(=O)c2c1O)C(C=C(C)C)Oc1cc(O)ccc1-3 (configuration not stated) please. -1

Also, "CCOC(=O)NC(=O)c1cn(C2CCCCC2)c(=O)[nH]c1=O" please. -1

Also, "CCOP(=O)(OCC)/C(C#N)=C/c1cccn1Cc1ccccc1" please. -1

Also, "Cc1cccc(/C(Br)=C2/OC(=O)c3ccccc32)c1" please. -1

Also, "Nc1n[n+]([O-])c2cc([N+](=O)[O-])ccc2[n+]1[O-]" please. -1

Also, C=C(Cl)C(Cl)(CBr)CCC(Cl)C(C)(C)Cl (configuration not stated) please. 1

Also, CCOP1(=O)C=C(Sc2ccc([N+](=O)[O-])cc2[N+](=O)[O-])C(C)(C)O1 (configuration not stated) please. -1

Also, "O=c1c2cc(-c3ccccc3)cnc2sn1-c1ccc([N+](=O)[O-])cc1" please. -1

Also, "N#CCN1CCCN(CC#N)CCN(CC#N)CCCN(CC#N)CC1" please. -1

Also, O=C1N2CCN=C2c2ccccc2C1(O)c1ccccc1 (configuration not stated) please. -1

Also, "Cc1cc(C(=O)N2CCN(Cc3ccccc3)CC2)c(C)o1" please. -1

Also, OCC(O)C(O)C(O)c1nnn[nH]1 (configuration not stated) please. -1

---

So I've got a bunch of molecules here, and I need their GI50 values.
system: TK-10; assay: NCI tumour cell line growth inhibition, 48 h
The source made the active and inactive calls. Cut-off read from the data, not from the text of the source: active = GI50 up to about 1.1 µM and inactive = higher.

Worked cases, GI50 given:
>>> df
                                   molecule  measured_parameter      recorded_result
0  CCOc1ccc2c(c1)c(=O)c1c(NCCN(CC)CC)ccc3nnn2c31                GI50   16.7 µM (inactive)
1  COc1ccc(C2SC(=N)Nc3c2c(C)nn3C(=O)c2ccncc2)cc1 (centres undefined)                GI50  > 100 µM (inactive)
2  N=C(N)NCCCC(NC(=O)OCCCCn1ccc(N)nc1=O)C(=O)O (centres undefined)                GI50  > 100 µM (inactive)

# batch size: 4; output GI50 per entry
1. N#CCc1nc2c(s1)C(=O)c1ccccc1C2=O
2. CCOP(=O)(OCC)/C(F)=C/c1ccc(F)cc1
3. N#CSCC1COc2ccccc2O1 (centres undefined)
4. COc1ccc(/N=N/c2c(-c3c(OC)cc4occc4c3OC)[nH]c(=O)c(C#N)c2C)cc1

21.8 µM (inactive)
> 100 µM (inactive)
> 10 µM (inactive)
> 100 µM (inactive)

# batch size: 3; output GI50 per entry
1. Clc1ccc(-c2cc3nc4ccccc4nc3o2)cc1
2. CC(=O)Oc1ccc2c3c1[C@@H]1O[C@@H]1c1cccc(c1-3)[C@@H]1O[C@H]21
3. O=C1NC(Cc2ccccc2)C(=O)N2CCCC12 (centres undefined)

32.7 µM (inactive)
2.08 µM (inactive)
> 100 µM (inactive)

# batch size: 2; output GI50 per entry
1. COc1ccc([I+]c2ccc(OC)cc2)cc1
2. COc1ccc(CCN2CCc3c(C)c(C#N)c4nc5ccccc5n4c32)cc1OC

["> 100 µM (inactive)", "64.1 µM (inactive)"]

# batch size: 3; output GI50 per entry
1. N#Cc1c(-c2ccc(Cl)cc2)cc(-c2ccc(Nc3ccnc4cc(Cl)ccc34)cc2)[nH]c1=O
2. COc1cc2c(cc1OC)C1c3ccccc3CCN1CC2 (centres undefined)
3. Nc1nc(Nc2ccccc2)sc1C(=O)c1cccs1

1: 13.1 µM (inactive); 2: > 100 µM (inactive); 3: 16.4 µM (inactive)

# batch size: 4; output GI50 per entry
1. NC(CCSCC(F)F)C(=O)O (centres undefined)
2. COc1cc(C(C)c2cc3c(cc2OCCO)OCO3)cc(OC)c1OC (centres undefined)
3. COc1c(Cl)cc(S(=O)O)cc1Cl
4. O=c1c2cccnc2n2n1Cc1ccccc1C2

> 100 µM (inactive)
18.3 µM (inactive)
> 100 µM (inactive)
> 100 µM (inactive)

# batch size: 3; output GI50 per entry
1. CC(O)CNC(=O)Nc1c(C(F)(F)F)cc(-c2ccccc2)[nH]c1=O (centres undefined)
2. CC(=O)Oc1ccc2ccc(=O)oc2c1OC(C)=O
3. COC(=O)c1c(OC)cccc1C(=O)O

["> 100 µM (inactive)", "78.2 µM (inactive)", "> 100 µM (inactive)"]

# batch size: 2; output GI50 per entry
1. Cc1ccc2c(C3Cc4ccccc4N3C(=O)/C=C\C(=O)O)c(C)[nH]c2c1 (centres undefined)
2. Cc1ccc(Cl)c(NC(=O)C(=O)C(C(=O)c2ccncc2)C2OC(=O)c3ccccc32)c1 (centres undefined)

["56.1 µM (inactive)", "> 100 µM (inactive)"]
